Provenance of the data: ChEMBL document CHEMBL1124927

# MIC annotations
- Tested on: Morganella morganii
- EXPERIMENT_DESCRIPTION: In vitro minimal inhibitory concentration against Morganella morganii CMC-84-39 (Mn)
- Assay type: functional
Report the value in µg/mL with no unit label.

- MOLECULE: "O=C(O)c1cn(C2CC2)c2cc(N3CCNCC(F)C3)c(F)cc2c1=O (stereo not given)"
  MIC (µg/mL): 0.06
- MOLECULE: "O=C(O)c1cn(C2CC2)c2cc(N3CCNCC(O)C3)c(F)cc2c1=O (stereo not given)"
  MIC (µg/mL): 0.12
- MOLECULE: "CC1CN(c2cc3c(cc2F)c(=O)c(C(=O)O)cn3C2CC2)CCN1 (stereo not given)"
  MIC (µg/mL): 0.03

Exercise: Name the recorded MIC of the item CCn1cc(C(=O)O)c(=O)c2cc(F)c(N3CCNC(CF)C3)cc21 (stereo not given) in your answer.
Key: 0.12

Exercise: Name the recorded MIC of the item "O=C(O)c1cn(C2CC2)c2cc(N3CCNCC3)c(F)cc2c1=O" in your answer.
Key: 0.015

* * *

- Test system: Escherichia coli
- EXPERIMENT_DESCRIPTION: In vitro minimal inhibitory concentration against Escherichia coli ATCC 25922 (Ec(A))
- Type: functional
# log10(MIC) annotations
Please be aware that the numbers have been log10-transformed from MIC in µg/mL.

- COMPOUND: "O=C(O)c1cn(-c2ccc(F)cc2)c2cc(N3CCNC(CF)C3)c(F)cc2c1=O (stereo not given)"
  ASSAY_VALUE: -0.60

// moving on: another record for log10(MIC)
Exercise: Name the recorded log10(MIC) of the item CCn1cc(C(=O)O)c(=O)c2cc(F)c(N3CCNC(C(F)F)C3)c(F)c21 (stereo not given) in your answer.
Key: -0.30

* * *

- System: Enterobacter cloacae
- EXPERIMENT_DESCRIPTION: In vitro minimal inhibitory concentration against Enterobacter cloacae VGH-84-39 (Et(c))
- Type: functional
# MIC annotations
Report the value in mg/L with no unit label.

Record excerpt, results attached:
- MOLECULE: "O=C(O)c1cn(C2CC2)c2cc(N3CCNC(CF)C3)c(F)cc2c1=O (stereo not given)"
  MIC [mg/L]: 0.12
- MOLECULE: "O=C(O)c1cn(C2CC2)c2cc(N3CCNCC(O)C3)c(F)cc2c1=O (stereo not given)"
  MIC [mg/L]: 0.25
- MOLECULE: "CCn1cc(C(=O)O)c(=O)c2cc(F)c(N3CCNC(C(F)F)C3)c(F)c21 (stereo not given)"
  MIC [mg/L]: 1
- MOLECULE: "O=C(O)c1cn(C2CC2)c2cc(N3CCCNCC3)c(F)cc2c1=O"
  MIC [mg/L]: 0.03

Exercise: Name the recorded MIC of the item O=C(O)c1cn(C2CC2)c2cc(N3CCNCC(F)C3)c(F)cc2c1=O (stereo not given) in your answer.
Key: 0.06

* * *

# MIC annotations
- Test system: Enterobacter cloacae
- EXPERIMENT_DESCRIPTION: In vitro minimal inhibitory concentration against Enterobacter cloacae VGH-84-39 (Et(c))
- Assay type: functional
Report the value in µg/mL with no unit label.

Record excerpt, results attached:
- COMPOUND: "CCn1cc(C(=O)O)c(=O)c2cc(F)c(N3CCNC(CO)C3)cc21.Cl (stereo not drawn)"
  ASSAY_VALUE: 1
- COMPOUND: "CC1CN(c2cc3c(cc2F)c(=O)c(C(=O)O)cn3C2CC2)CCN1 (stereo not drawn)"
  ASSAY_VALUE: 0.015

// moving on: another record for MIC
Exercise: Name the recorded MIC of the item CCn1cc(C(=O)O)c(=O)c2cc(F)c(N3CCNC(CF)C3)cc21 (stereo not drawn) in your answer.
Key: 0.12

* * *

- Tested on: Morganella morganii
- EXPERIMENT_DESCRIPTION: In vitro minimal inhibitory concentration against Morganella morganii CMC-84-39 (Mn)
- Type: functional
# MIC annotations
Report the value in µg/mL with no unit label.

- MOLECULE: "O=C(O)c1cn(-c2ccc(F)cc2)c2cc(N3CCNC(CF)C3)c(F)cc2c1=O (stereo not given)"
  TESTED_TARGET: "Morganella morganii"
  UNIT: "µg/mL"
  MIC: 1
- MOLECULE: "O=C(O)c1cn(C2CC2)c2cc(N3CCCNCC3)c(F)cc2c1=O"
  TESTED_TARGET: "Morganella morganii"
  UNIT: "µg/mL"
  MIC: 0.03
- MOLECULE: "O=C(O)c1cn(C2CC2)c2cc(N3CCNC(CF)C3)c(F)cc2c1=O (stereo not given)"
  TESTED_TARGET: "Morganella morganii"
  UNIT: "µg/mL"
  MIC: 0.12
- MOLECULE: "CCn1cc(C(=O)O)c(=O)c2cc(F)c(N3CCNC(CO)C3)cc21.Cl (stereo not given)"
  TESTED_TARGET: "Morganella morganii"
  UNIT: "µg/mL"
  MIC: 0.5

// moving on: another record for MIC
Exercise: Name the recorded MIC of the item CCn1cc(C(=O)O)c(=O)c2cc(F)c(N3CCNC(C(F)F)C3)c(F)c21 (stereo not given) in your answer.
Key: 1

* * *

- Tested on: Escherichia coli
- EXPERIMENT_DESCRIPTION: In vitro minimal inhibitory concentration against Escherichia coli ATCC 25922 (Ec(A))
- Assay type: functional
Lab note: compare MIC with 0.2 µg/mL, writing Criterion met if less and Criterion not met if equal or more.

- MOLECULE: "CC1CN(c2cc3c(cc2F)c(=O)c(C(=O)O)cn3C2CC2)CCN1 (stereo not drawn)"
  TESTED_TARGET: "Escherichia coli"
  CLASS_NAME: "Criterion met"
- MOLECULE: "O=C(O)c1cn(C2CC2)c2cc(N3CCNCC3)c(F)cc2c1=O"
  TESTED_TARGET: "Escherichia coli"
  CLASS_NAME: "Criterion met"
- MOLECULE: "CCn1cc(C(=O)O)c(=O)c2cc(F)c(N3CCNC(CO)C3)cc21.Cl (stereo not drawn)"
  TESTED_TARGET: "Escherichia coli"
  CLASS_NAME: "Criterion not met"
- MOLECULE: "O=C(O)c1cn(C2CC2)c2cc(N3CCNCC(F)C3)c(F)cc2c1=O (stereo not drawn)"
  TESTED_TARGET: "Escherichia coli"
  CLASS_NAME: "Criterion met"
- MOLECULE: "CCn1cc(C(=O)O)c(=O)c2cc(F)c(N3CCNC(CF)C3)cc21 (stereo not drawn)"
  TESTED_TARGET: "Escherichia coli"
  CLASS_NAME: "Criterion met"

Exercise: Strictly below 0.2 µg/mL in MIC? O=C(O)c1cn(C2CC2)c2cc(N3CCNCC(O)C3)c(F)cc2c1=O (stereo not drawn)
Key: Criterion not met

Exercise: Strictly below 0.2 µg/mL in MIC? O=C(O)c1cn(C2CC2)c2cc(N3CCNC(CF)C3)c(F)cc2c1=O (stereo not drawn)
Key: Criterion met

Exercise: Strictly below 0.2 µg/mL in MIC? "O=C(O)c1cn(C2CC2)c2cc(N3CCCNCC3)c(F)cc2c1=O"
Key: Criterion met
